# Test system: OVCAR-4 ovarian
# ASSAY COMMENT: NCI tumour cell line growth inhibition, 48 h
READOUT TYPE: TGI

Problem: # returns recorded TGI (system: OVCAR-4 ovarian) for C[C@]12CC[C@H]3[C@@H](CCC4=CC(=O)CC[C@@H]43)[C@@H]1CC[C@]2(O)C(N)=O
Result: > 100 µM

Problem: Enter reported TGI observed with OVCAR-4 ovarian for Cc1cccc(NC(=O)C(=O)Cc2nc3ccccc3[nH]c2=O)c1C
Result: > 100 µM

Problem: Param readout= TGI; system= OVCAR-4 ovarian; entry= Cc1ccc(C(=NN=C(N)N)c2ccc(C)cc2)cc1 ; returns value.
Result: 13.8 µM

Problem: Find TGI (OVCAR-4 ovarian) for the entry CC1(C)C2CC(O)C1(C)CC2=O (stereo unspecified)
Result: > 100 µM

Problem: Fill in the recorded TGI for this molecule, with OVCAR-4 ovarian as test system: Cn1cc(C(=O)c2ccccc2)ccc1=O
Result: > 100 µM

Problem: Field: TGI (OVCAR-4 ovarian). Entry: N.N.N.N.N.O=C([O-])c1nn[n-]n1.[Cl-].[Co+3]
Result: > 100 µM

Problem: Value wanted: TGI (OVCAR-4 ovarian) of entry N#Cc1nc(C2OC(COC(=O)c3ccccc3)C(OC(=O)c3ccccc3)C2OC(=O)c2ccccc2)oc1N (stereo unspecified)
Result: > 100 µM

Problem: Param readout= TGI; system= OVCAR-4 ovarian; entry= COC(=O)C1=NC(=S)NC(c2ccccc2)C1c1nc2ccccc2s1 (stereo unspecified) ; returns value.
Result: > 100 µM

Problem: Write down the reported TGI of Cc1cccc(N/C(=C(/C(Cl)=C(Cl)Cl)[N+](=O)[O-])n2nnc3ccccc32)c1 , test system: OVCAR-4 ovarian.
Result: 39.5 µM

Problem: Identify the measured TGI of CCOC(=O)C(Cc1ccc2ccccc2c1)(Cc1ccc2ccccc2c1)C(C)=O for OVCAR-4 ovarian.
Result: > 10 µM

Problem: Query TGI on OVCAR-4 ovarian for CCSc1nnc(Sc2c3ccccc3nc3ccccc23)s1
Result: 34.7 µM

These entries and their values trace back to PubChem BioAssay (NCI).
